# Test system: A498 renal
# protocol-details: NCI tumour cell line growth inhibition, 48 h
Below is a list of entries, each paired with its recorded log10 TGI value.
Hello, just confirming the data are log10 of TGI with units of µM.

Data request: Enter reported log10 TGI observed with A498 renal for NC(=O)CNc1ccc([As]=[As]c2ccc(NCC(N)=O)cc2)cc1 (stereo not given)
Data returned: 1.26

Data request: Another: CCOC(=O)C(C)(c1c(C)[nH]c2ccccc12)c1c(C)[nH]c2ccccc12
Data returned: 1.56

Data request: Another: C=CCn1c(SCC(=O)Nc2ccc(C(=O)/C=C/c3cc(OC)c(OC)c(OC)c3)cc2)nnc1-c1ccc(OC)cc1
Data returned: 0.46

Data request: Another: CC(=O)c1c(N=[N+]=[N-])c2cccc3c2n(c1=O)CCC3
Data returned: 1.75

Data request: Another: CCCCCCCCCCCC(=O)OC[C@@H](C[As](=O)(O)O)OC(=O)CCCCCCCCCCC
Data returned: 1.39

Data request: Another: CNC(C)[C@H]1CCC2C3CC=C4C(=O)[C@@H](NC(=O)C=C(C)C)CC[C@]4(C)C3CC[C@@]21C (stereo not given in full)
Data returned: 0.92

* * *

# System: A498 renal
# protocol-details: NCI tumour cell line growth inhibition, 48 h
assay-readout: TGI

The examples below pair each entry with its known result.
c1ccc2c(c1)c1ccccc1c1ccccc21 = > 100 µM
CC(Cl)CN1c2ccccc2Sc2ccc(Cl)cc21 (stereo unspecified) = > 10 µM
COc1cc2c3c(n(CCCN(CCO)CCO)c(=O)c2cc1OC)-c1cc2c(cc1C3=O)OCO2 = 0.345 µM
CCOP(=O)(OCC)/C(C#N)=C/c1ccc(-c2cc(C(F)(F)F)cc(C(F)(F)F)c2)o1 = 24.8 µM
O=C1c2c(Br)sc(Br)c2C(=O)C1(O)O = > 100 µM

Data request: Item under review: Cc1ccc(S(=O)(=O)C2=C(C(C)C)N=NC2(C)C)cc1 . Reported TGI?
Data returned: > 100 µM

* * *

# Tested on: T-47D breast
# protocol-details: NCI tumour cell line growth inhibition, 48 h
assay-readout: TGI (µM)
Number in µM, nothing else.

O=[N+]([O-])c1ccc(Sc2c3ccccc3nc3ccccc23)cn1 = 19.9
O=P1(Cc2ccccc2)N(Cc2ccccc2)[C@@H]2CCCC[C@H]2N1Cc1ccccc1 = 24.3
COc1ccc(N2C(=O)C(=O)N(c3ccc(N=Nc4ccccc4)cc3)C2=S)cc1 = 45.1
CCOC(=O)c1sc2nc(SC)nc(Nc3ccc4c(c3)OCCO4)c2c1N = 26.2

Turning now to a further compound:
Data request: Item under review: COc1cc(/C=C/C(=O)C(C(=O)/C=C/c2ccc(OC(=O)CCNC34CC5CC(CC(C5)C3)C4)c(OC)c2)C(=O)CCNC23CC4CC(CC(C4)C2)C3)ccc1OC(=O)CCNC12CC3CC(CC(C3)C1)C2 (configuration not stated) . Reported TGI?
Data returned: 28.9

* * *

# Test system: HCT-116 colon
# protocol-details: NCI tumour cell line growth inhibition, 48 h; in the data active means GI50 below about 0.43 µM; inactive means the rest
Outcomes you can answer with include only these: TRUE for active, FALSE for inactive

Clc1nc(Cl)c2ncn(Cc3ccccc3Cn3cnc4c(Cl)nc(Cl)nc43)c2n1 = FALSE
O=C(N[C@@H](Cc1coc2ccccc12)B(O)O)[C@@H]1C[C@H]2CC[C@@H]1O2 = FALSE
NCCCOc1cc(Cl)ccc1NC(=O)c1cc2ccccc2cc1OCCCN = FALSE
COC(=O)[C@]12CC[C@@H](C)[C@H](C)[C@@H]1C1=CC[C@@H]3[C@@]4(C)C(C=O)=C[C@@](C)(COC(=O)c5ccco5)[C@@H]4[C@H](O)C[C@@]3(C)[C@]1(C)CC2 = FALSE
COc1cc(/C=C2\CCC/C(=C\c3ccc(OCC4CO4)c(OC)c3)C2=O)ccc1OCC1CO1 (centres undefined) = FALSE

Data request: Lab log entry: N#CC(C#N)=C1CCCOc2c1ccc1ccccc21 — outcome as called in the assay?
Data returned: FALSE

Data request: Another: CC1(C)N=C(N)N=C(N)N1c1cccc(OCCOc2cccc([N+](=O)[O-])c2)c1
Data returned: FALSE

Data request: Another: CNCCn1c(=O)c2cc(OC)c(OC)cc2c2cnc3cc4c(cc3c21)OCO4
Data returned: TRUE

Data request: Another: COc1ccc2c(c1)C(C)Cc1c(ncnc1-n1cnc3ccccc31)N2C (centres undefined)
Data returned: FALSE

* * *

# Test system: SR leukemia
# protocol-details: NCI tumour cell line growth inhibition, 48 h
assay-readout: TGI

The examples below pair each entry with its known result.
C[n+]1c2ccccc2c(NC(CCCN=C(N)N)C(=O)O)c2ccccc21 (centres undefined) = > 100 µM
Cc1c(Cl)cccc1NC(=O)c1cccc([N+](=O)[O-])c1O = 74.8 µM
CC1CC(Nc2ccc(Br)cc2)N(C(=O)c2ccc(Br)cc2)O1 (centres undefined) = > 10 µM
CCCn1cnc2c(SCc3ccc(Cl)cc3)nc(N)nc21 = 34.8 µM
Cc1ccc2c(c1-c1ccccc1)C(=O)OC2 = > 100 µM

Data request: Item under review: CC(NC(=O)Cc1ccccc1)NC(=O)C(C)C(=O)NCc1ccccc1 (centres undefined) . Reported TGI?
Data returned: > 100 µM

Data request: Another: C=C1CCCCCCCCC/C=C/1SCCCSC
Data returned: > 100 µM

Data request: Another: COc1ccc(/C=N/N=C(\N)NO)c(OC)c1C
Data returned: > 100 µM

Data request: Another: O=c1cc(NNc2cccc(Cl)c2)[nH]c(=O)[nH]1
Data returned: > 100 µM

Data request: Another: O=C(NC1CCCCC1)c1ccc(Nc2ncnc3c2cnn3-c2ccccc2)cc1
Data returned: 49.1 µM

Data request: Another: CC(C)(C)OC(=O)N1C2CCCC23O[C@@H]1c1cc2c(cc1C3=O)OCO2 (some centres undefined)
Data returned: > 100 µM

Data request: Another: CCOC(=O)C1=C(Nc2ccc(Br)cc2)OCC1=O
Data returned: > 100 µM

Data request: Another: c1ccc(NCCSc2nc3ccccc3s2)cc1
Data returned: > 100 µM

Data request: Another: C=CC1(CC[C@]2(c3ccc(OC)c(OC)c3)C=[N+]([O-])O[C@H](O[C@@H]3CCCC[C@H]3C(C)(C)c3ccccc3)C2)OCC(C)(C)CO1
Data returned: > 38.9 µM

* * *

Below is a list of entries, each paired with its recorded TGI value.
# Tested on: CAKI-1 renal
# protocol-details: NCI tumour cell line growth inhibition, 48 h

The examples below pair each entry with its known result.
O=P1(Cc2ccccc2)N(Cc2ccccc2)[C@@H]2CCCC[C@H]2N1Cc1ccccc1 = 23.7 µM
CC1=NC(C)(COC(=O)C2(C)NC(C)(CO)CO2)COC1=O (centres undefined) = > 100 µM
COc1cc2c3c(n(CCCN(CCO)CCO)c(=O)c2cc1OC)-c1cc2c(cc1C3=O)OCO2 = < 0.018 µM
Oc1ccc(N=Nc2nccs2)c(O)c1 = 2.37 µM
C=C1C(O)C2C(=C(C)C13CC3)C(=O)C(C)(C)C2OC (centres undefined) = > 100 µM

Data request: Item under review: O=C(N/N=C/c1ccc(O)cc1O)c1cccnc1 . Reported TGI?
Data returned: 45.6 µM

Data request: Another: CN1CCc2c(sc3[nH]c(=S)[nH]c(=S)c23)C1
Data returned: > 100 µM

Data request: Another: COc1ccc(C2(CC(C)C)CCN(S(=O)(=O)c3ccc(C)cc3)C2)cc1OC (centres undefined)
Data returned: > 100 µM

Data request: Another: CCCO[C@@H]1[C@@H](OC(C)=O)[C@@H](OC(C)=O)C(C)(C)/C=C/[C@H](C)C(=O)[C@@]2(OC(C)=O)C[C@@](C)(OC(C)=O)[C@H](OC(C)=O)[C@@H]2[C@H]2OC(=O)CC[C@@]12OC(=O)c1ccccc1
Data returned: > 25 µM

* * *

# System: HCT-15 colon
# protocol-details: NCI tumour cell line growth inhibition, 48 h; in the data active = GI50 below about 0.43 µM; inactive = the rest
Outcomes you can answer with include only these: active, inactive

c1ccc2c(c1)c1ccccc1c1ccccc21 = inactive
Cc1sc2c(c1C)C(c1ccc(Cl)cc1)=N[C@@H](CC(=O)Nc1ccc(OCCOCCOCCOCCNc3cccc4c3C(=O)N(C3CCC(=O)NC3=O)C4=O)cc1)c1nnc(C)n1-2 (some centres undefined) = active
Clc1nc(Cl)c2ncn(Cc3ccccc3Cn3cnc4c(Cl)nc(Cl)nc43)c2n1 = inactive
O=C(N[C@@H](Cc1coc2ccccc12)B(O)O)[C@@H]1C[C@H]2CC[C@@H]1O2 = inactive
COC(=O)[C@]12CC[C@@H](C)[C@H](C)[C@@H]1C1=CC[C@@H]3[C@@]4(C)C(C=O)=C[C@@](C)(COC(=O)c5ccco5)[C@@H]4[C@H](O)C[C@@]3(C)[C@]1(C)CC2 = inactive

Data request: Lab log entry: Cc1noc2c1-c1ccccc1C(c1ccc(Cl)cc1)=N[C@H]2CC(N)=O — outcome as called in the assay?
Data returned: inactive

Data request: Another: O=C(CCN1CCOCC1)Nc1cccc(-n2cc(-c3ccncc3)c(-c3ccc(Cl)c(O)c3)n2)c1
Data returned: inactive

Data request: Another: CCC[CH2][Sn]1([CH2]CCC)[O]CC(COc2c(Cl)cc(Cl)cc2Cl)[O]1 (centres undefined)
Data returned: inactive

Data request: Another: Oc1ccc(N=Nc2nccs2)c(O)c1
Data returned: inactive
